target: 5-lipoxygenase (5-LO) (Homo sapiens, UniProt P09917); construct: Leukotriene B4 (LTB4) production in human whole blood; test: 5-Lipoxygenase activity: calcium ionophore-induced LTB4 production in human whole blood; conditions: A-23187 20 μg/ml, LTB4 by ELISA, mean IC50
Sequence (P09917 whole entry): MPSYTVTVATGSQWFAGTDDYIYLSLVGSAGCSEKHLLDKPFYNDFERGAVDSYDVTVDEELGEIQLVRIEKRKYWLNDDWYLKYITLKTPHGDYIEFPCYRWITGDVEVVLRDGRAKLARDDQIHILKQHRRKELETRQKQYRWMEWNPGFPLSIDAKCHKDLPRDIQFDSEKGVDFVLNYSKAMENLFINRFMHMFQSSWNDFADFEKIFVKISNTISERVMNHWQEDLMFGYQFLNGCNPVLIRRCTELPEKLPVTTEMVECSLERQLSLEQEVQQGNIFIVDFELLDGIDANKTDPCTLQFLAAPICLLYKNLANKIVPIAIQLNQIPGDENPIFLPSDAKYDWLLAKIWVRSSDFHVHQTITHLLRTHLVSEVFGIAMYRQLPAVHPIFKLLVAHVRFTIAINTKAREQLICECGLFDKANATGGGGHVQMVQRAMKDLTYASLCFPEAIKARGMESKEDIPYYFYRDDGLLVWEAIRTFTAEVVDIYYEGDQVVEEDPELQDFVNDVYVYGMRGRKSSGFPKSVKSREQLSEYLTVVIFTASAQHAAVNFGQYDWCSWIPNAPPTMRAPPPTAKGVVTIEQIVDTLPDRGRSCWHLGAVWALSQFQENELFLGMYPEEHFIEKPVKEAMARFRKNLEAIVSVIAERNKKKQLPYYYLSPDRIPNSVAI
pIC50: −log10 of the molar value.
VALUE_KIND: pIC50

[A] NC(=O)N(O)Cc1cc(-c2ccc(Cl)cc2)n(-c2ccc(S(N)(=O)=O)cc2)n1 [Example 1]
[B] CN(O)C(=O)CCc1nc(-c2ccc(F)cc2)c(-c2ccc(S(C)(=O)=O)cc2)o1 [Example 2]
Which has the smaller recorded pIC50, A or B ? Identify your pick by its label.
A
(A: 4.91, B: 7.30)
